assay: Caco-2 permeability assay (CacoReady kit); type: in vitro ADME; settings: human
Measurement kind: Papp

IN: State its Papp: "CCNC(=O)C(=O)CC[C@H](NC(=O)c1cncn1C)C(=O)Nc1cccn(CC(=O)NC23CC4(C)CC(C)(CC(C)(C4)C2)C3)c1=O"
OUT: < 1 ×10⁻⁶ cm/s

IN: Retrieve Papp measured for "CCNC(=O)C(=O)CC[C@H](NC(=O)c1c(C)ncn1C)C(=O)Nc1cccn(CC(=O)NC23CC4CC(CC(CC)(C4)C2)C3)c1=O" and print it.
OUT: < 1 ×10⁻⁶ cm/s

IN: Please give measured Papp of the following entry: CCOC(=O)/C=C/CC[C@H](NC(=O)c1cccnc1)C(=O)Nc1ccc(C)n(CC(=O)NCCc2ccccc2)c1=O [Ref. 3, reference compound]
OUT: < 1 ×10⁻⁶ cm/s

IN: Read the entry CCNC(=O)C(=O)CC[C@H](NC(=O)c1cc(C)oc1C)C(=O)Nc1cccn(CC(=O)NC2C3CC4CC(C3)CC2C4)c1=O (stereo partly drawn) and write its reported Papp.
OUT: 1 to 10 ×10⁻⁶ cm/s

IN: Query Papp for "CCNC(=O)C(=O)CC[C@H](NC(=O)c1cccnn1)C(=O)Nc1cccn(CC(=O)N[C@@H]2C[C@@H]3C=C[C@H]2C3)c1=O"
OUT: < 1 ×10⁻⁶ cm/s

IN: Provide measured Papp value, entry: "CCNC(=O)C(=O)CC[C@H](NC(=O)c1cncn1C)C(=O)Nc1cccn(CC(=O)NC23CC4CC(CC(C)(C4)C2)C3)c1=O"
OUT: < 1 ×10⁻⁶ cm/s

IN: Item CCNC(=O)C(=O)CC[C@H](NC(=O)c1oc2ccccc2c1C)C(=O)Nc1cccn(CC(=O)NC2C3CC4CC(C3)CC2C4)c1=O (stereo partly drawn) : provide Papp
OUT: 1 to 10 ×10⁻⁶ cm/s

IN: Input "CCNC(=O)C(=O)CC[C@H](NC(=O)c1cncn1C)C(=O)Nc1cccn(CC(=O)NC23CC4CC(C2)CC(C(F)(F)F)(C4)C3)c1=O" , output reported Papp.
OUT: < 1 ×10⁻⁶ cm/s

IN: Input CCNC(=O)C(=O)CC[C@H](NC(=O)c1sc(-c2ccccc2)nc1C)C(=O)Nc1cccn(CC(=O)NC2C3CC4CC(C3)CC2C4)c1=O (stereo partly drawn) , output reported Papp.
OUT: 1 to 10 ×10⁻⁶ cm/s

IN: Respond only with Papp recorded for CCNC(=O)C(=O)CC[C@H](NC(=O)[C@@H]1CCCN1C(C)=O)C(=O)Nc1cccn(CC(=O)NC2C3CC4CC(C3)CC2C4)c1=O (stereo partly drawn)
OUT: < 1 ×10⁻⁶ cm/s
